Provide the reported Residual rate of each item.
# MEASUREMENT_DESCRIPTION: Stability evaluation of solution formulation (Experimental Example 2)
# Format: physicochemical
# TEST_CONDITIONS: solution formulation, pH4.0, 2 week
Give bare numbers, in %.

Consider the reported Residual rate for these molecules:
MOLECULE: CCCN(C[C@@H]1CCCCN1)C(=O)Oc1cc(O)c2c(=O)cc(-c3ccccc3Cl)oc2c1[C@H]1CCN(C)C[C@H]1O
UNIT_OF_MEASUREMENT: %
Residual rate: 98.1
--
MOLECULE: CCN(C[C@H]1CCCCN1)C(=O)Oc1cc(O)c2c(=O)cc(-c3ccccc3Cl)oc2c1[C@H]1CCN(C)C[C@H]1O
UNIT_OF_MEASUREMENT: %
Residual rate: 96.4
--
MOLECULE: CNCCN(C)C(=O)Oc1cc(O)c2c(=O)cc(-c3ccccc3Cl)oc2c1[C@H]1CCN(C)C[C@H]1O [Comparative Example 14, reference compound]
UNIT_OF_MEASUREMENT: %
Residual rate: 78.3
--
MOLECULE: CCCN(C[C@H]1CCCCN1)C(=O)Oc1cc(O)c2c(=O)cc(-c3ccccc3Cl)oc2c1[C@H]1CCN(C)C[C@H]1O
UNIT_OF_MEASUREMENT: %
Residual rate: 98.5

Kindly review the next molecule as well.
Query string: Return Residual rate (reported value) for this molecule: CN1CC[C@H](c2c(OC(=O)N(C)CCN)cc(O)c3c(=O)cc(-c4ccccc4Cl)oc23)[C@H](O)C1 [Comparative Example 13, reference compound]
Result string: 97.4
